Tested on: TNBC BT-549 cells
assay_details: Cell survival / cell inhibition (MTT cell cytotoxicity assay) after 24 h treatment with photosensitizer and/or chemotherapeutic agent, dark or light-irradiated
Assay type: cell-based, human
condition_summary: PS 100 nM + fluorouracil 25 μM, 24 h, light 0.96 J cm−2
Assign class by cell inhibition (%), combination with fluorouracil: not lower than 40% means 1; lower than 40% means -1.

compound="C=Cc1c(C)c2cc3nc(c4c5[nH]c(cc6nc(cc1[nH]2)C(C)=C6CC)c(C)c5C(=O)[C@@H]4C(=O)OC)[C@@H](CCC(=O)OC)[C@@H]3C [MePheo, methyl pheophorbide, reference compound]" assigned_category=-1
compound="C=Cc1c(C)c2cc3nc(c(CC(=O)OC)c4[nH]c(cc5nc(cc1[nH]2)C(C)=C5CC)c(C)c4C(=O)NCCCCCCNC(=O)c1ccc(C(=C)c2cc4c(cc2C)C(C)(C)CCC4(C)C)cc1)[C@@H](CCC(=O)OC)[C@@H]3C [CBX, chlorin bexarotene conjugate]" assigned_category=-1
compound="C=Cc1c(C)c2cc3nc(c(CC(=O)OC)c4[nH]c(cc5nc(cc1[nH]2)C(C)=C5CC)c(C)c4C(=O)NCCCCCCNC(=O)CCCC[C@@H]1CCSS1)[C@@H](CCC(=O)OC)[C@@H]3C [CLA, chlorin lipoic acid conjugate]" assigned_category=-1
compound="C=Cc1c(C)c2cc3nc(c(CC(=O)OC)c4[nH]c(cc5nc(cc1[nH]2)C(C)=C5CC)c(C)c4C(=O)NCCCCCCNC(=O)CCCCC1SCC2NC(=O)NC21)C(CCC(=O)OC)C3C (centres unmarked) [CBTN, chlorin biotin conjugate]" assigned_category=1

Now, please, on to the next compound.
Query block: Is it the case that C=Cc1c(C)c2cc3nc(c(CC(=O)OC)c4[nH]c(cc5nc(cc1[nH]2)C(C)=C5CC)c(C)c4C(=O)NCCCCCCNC(=O)CCNC(=O)[C@H](O)C(C)(C)CO)[C@@H](CCC(=O)OC)[C@@H]3C [CPA, chlorin pantothenic acid conjugate] has cell inhibition (%), combination with fluorouracil reaching or exceeding 40%?
Result block: 1
